target.of.assay: Ubiquitin-conjugating enzyme E2 N (Homo sapiens);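 also: Dose-response confirmation in a TR-FRET assay detecting UBC13-driven polyubiquitin chain formation, inhibition measured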
Sequence (P61088 whole entry): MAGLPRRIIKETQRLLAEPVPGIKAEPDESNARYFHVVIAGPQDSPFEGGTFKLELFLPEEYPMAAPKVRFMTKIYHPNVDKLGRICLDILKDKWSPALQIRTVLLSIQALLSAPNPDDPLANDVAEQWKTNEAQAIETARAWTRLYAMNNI
Type: functional
Activity calls are given as the source filed them.
Possible outcomes: y (active), n (inactive)

[
  {
    "molecule": "C/C(=N\\NC(=O)CSCc1ccc([N+](=O)[O-])cc1)c1cccc(Br)c1",
    "target.of.assay": "Ubiquitin-conjugating enzyme E2 N (Homo sapiens)",
    "category": "n"
  },
  {
    "molecule": "O=C(O)CC(C(=O)O)N1C(=O)/C(=C/C=C/c2ccco2)SC1=S (stereo unspecified)",
    "target.of.assay": "Ubiquitin-conjugating enzyme E2 N (Homo sapiens)",
    "category": "n"
  },
  {
    "molecule": "Nc1ccc(OCCCc2c(N)nc(N)nc2N)cc1",
    "target.of.assay": "Ubiquitin-conjugating enzyme E2 N (Homo sapiens)",
    "category": "n"
  },
  {
    "molecule": "COc1cc(C(CCN2CCCCC2)c2c(OC)cc(OC)c3c(-c4ccccc4)cc(=O)oc23)cc(OC)c1OC (stereo unspecified)",
    "target.of.assay": "Ubiquitin-conjugating enzyme E2 N (Homo sapiens)",
    "category": "n"
  },
  {
    "molecule": "Cc1[nH]c(=S)c(C#N)c(-c2ccccc2)c1C(=O)Nc1ccccc1",
    "target.of.assay": "Ubiquitin-conjugating enzyme E2 N (Homo sapiens)",
    "category": "y"
  },
  {
    "molecule": "CN(C)CCCNC(=O)c1ccc(-c2cc(O)c3ncccc3c2)cc1",
    "target.of.assay": "Ubiquitin-conjugating enzyme E2 N (Homo sapiens)",
    "category": "y"
  },
  {
    "molecule": "CC(=O)NC(c1cccs1)c1cc(Cl)c2ccccc2c1O (stereo unspecified)",
    "target.of.assay": "Ubiquitin-conjugating enzyme E2 N (Homo sapiens)",
    "category": "n"
  },
  {
    "molecule": "CCN(Cc1ccccc1)S(=O)(=O)c1ccc(C(=O)N(CCCN(C)C)c2nc3cc4c(cc3s2)OCO4)cc1",
    "target.of.assay": "Ubiquitin-conjugating enzyme E2 N (Homo sapiens)",
    "category": "n"
  },
  {
    "molecule": "O=C(CCNC(=O)c1ccccc1Cl)Nc1nc2ccccc2s1",
    "target.of.assay": "Ubiquitin-conjugating enzyme E2 N (Homo sapiens)",
    "category": "y"
  },
  {
    "molecule": "CCC[C@@H](CN1CCC[C@H]1CN1C(N)=NC[C@H]1CC(C)C)N1C[C@@H]([C@H](C)CC)N(CCc2ccc(Cl)c(Cl)c2)C1=N",
    "target.of.assay": "Ubiquitin-conjugating enzyme E2 N (Homo sapiens)",
    "category": "n"
  },
  {
    "molecule": "O=C1Cc2ccccc2Sc2ccc(O)cc21",
    "target.of.assay": "Ubiquitin-conjugating enzyme E2 N (Homo sapiens)",
    "category": "n"
  }
]

====

target.of.assay: Low molecular weight phosphotyrosine protein phosphatase (Homo sapiens, UniProt P24666);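 also: Dose-response confirmation assay measuring inhibition of LMPTP enzyme activity by fluorescence intensity read-out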
Sequence (P24666 whole entry): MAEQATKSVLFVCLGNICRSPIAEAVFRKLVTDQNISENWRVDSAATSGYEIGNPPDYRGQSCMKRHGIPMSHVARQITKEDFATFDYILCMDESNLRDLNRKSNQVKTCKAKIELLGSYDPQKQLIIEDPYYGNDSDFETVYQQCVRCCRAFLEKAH
Format: functional
condition.details: read-out: IC50_Mean
Activity calls are given as the source filed them.
Labels: YES = active, NO = inactive

[
  {
    "smiles.structure": "O=c1cc(-c2cc3ccccc3o2)c2cc(O)ccc2o1",
    "category": "YES"
  },
  {
    "smiles.structure": "COc1ccc(Nc2ccnc3ccccc23)cc1",
    "category": "NO"
  },
  {
    "smiles.structure": "Cc1ccccc1Nc1cc(C)c2c(O)cccc2n1",
    "category": "YES"
  },
  {
    "smiles.structure": "Nc1ccc2[nH]c(CCCCCCc3nc4cc(N)ccc4[nH]3)nc2c1",
    "category": "NO"
  }
]

// data source = ChEMBL document CHEMBL1201862
